- Target: Beta-2 adrenergic receptor (Homo sapiens) (UniProt P07550)
- Sequence (P07550 whole entry, looked up): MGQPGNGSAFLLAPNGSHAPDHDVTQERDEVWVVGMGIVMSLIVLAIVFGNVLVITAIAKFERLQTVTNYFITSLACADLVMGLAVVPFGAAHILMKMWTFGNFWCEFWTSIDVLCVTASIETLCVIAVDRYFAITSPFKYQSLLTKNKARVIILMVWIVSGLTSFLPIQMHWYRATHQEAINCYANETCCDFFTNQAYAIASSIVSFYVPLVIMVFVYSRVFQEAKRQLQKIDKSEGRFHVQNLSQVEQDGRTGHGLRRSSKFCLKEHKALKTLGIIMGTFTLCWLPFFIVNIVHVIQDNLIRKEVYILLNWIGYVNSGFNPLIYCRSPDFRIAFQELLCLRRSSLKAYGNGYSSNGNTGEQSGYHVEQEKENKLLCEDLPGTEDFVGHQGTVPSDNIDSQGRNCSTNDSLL
- Assay: beta2AR agonists driving receptor internalization, dose response, cell-based, FAP fluorogen, flow cytometry, powder set 5 (AID 651912)
- Condition Context: AM2.2-beta2AR cells, 90 min
Measure: pEC50
Please keep in mind that pEC50 is minus log10 of the molar concentration; only the number is needed.

Incoming: Dear colleague, I am looking for the recorded pEC50 of the following compound: CC(=O)Nc1ccc(S(=O)(=O)N2CCCCC2C)cc1 (configuration not stated)
Outgoing: 7.10

Incoming: Next record, please: CC1CCCCN1S(=O)(=O)c1ccc(NC(=O)c2cccnc2)cc1 (configuration not stated)
Outgoing: 6.87

Incoming: Next record, please: CCC(=O)Nc1ccc(S(=O)(=O)N2CCCCC2CC)cc1 (configuration not stated)
Outgoing: 8.32

Incoming: Next record, please: Cc1cccc(C(=O)Nc2ccc(S(=O)(=O)N3CCCCC3C)cc2)c1 (configuration not stated)
Outgoing: 5.40

Incoming: Next record, please: O=C(C1CCCN1S(=O)(=O)c1ccc(Cl)cc1)N1CCN(c2ccccn2)CC1 (configuration not stated)
Outgoing: 6.66

Incoming: Next record, please: CN(CC(=O)N1CCN(c2ccc(F)cc2)CC1)S(=O)(=O)c1ccc(Br)cc1
Outgoing: 6.47

Incoming: Next record, please: CCC1CCCCN1S(=O)(=O)c1ccc(NC(C)=O)cc1 (configuration not stated)
Outgoing: 6.88

// provenance: PubChem BioAssay AID651912
